Test system: c-Src protein
Test: Src kinase phosphorylation of biotinylated cdc2 substrate, fluorescence (DELFIA)
Type: biochemical, human
measurement label: SRC % inhib at 10 μM (%)
A number alone suffices; assume %.

Short answer for `CS(=O)(=O)c1ccccc1S(=O)(=O)Nc1ccc2[nH]nc(-c3cccc(N)c3)c2c1` : SRC % inhib at 10 μM was 95

Short answer for `COc1cccc(S(=O)(=O)Nc2ccc3[nH]nc(-c4ccccc4)c3c2)c1` : SRC % inhib at 10 μM was 57

Short answer for `Cc1cccc(S(=O)(=O)Nc2ccc3[nH]nc(-c4ccccc4)c3c2)c1` : SRC % inhib at 10 μM was 39

Short answer for `CS(=O)(=O)c1ccccc1S(=O)(=O)Nc1ccc2[nH]nc(-c3ccc[nH]3)c2c1` : SRC % inhib at 10 μM was 98

Data credit: patent US6858638B2
